Target: KRas G12D/Q61H double mutant (Homo sapiens (Human), UniProt P01116, G12D/Q61H)
Sequence (P01116-2 other isoform, or with tags, fused parts or gaps G12D/Q61H): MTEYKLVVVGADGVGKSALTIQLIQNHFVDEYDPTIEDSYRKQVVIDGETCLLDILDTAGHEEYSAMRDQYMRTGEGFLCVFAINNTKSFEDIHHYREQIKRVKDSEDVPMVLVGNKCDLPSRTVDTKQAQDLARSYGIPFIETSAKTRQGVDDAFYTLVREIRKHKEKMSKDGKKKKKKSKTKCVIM
Experiment: Ras GTP binding domain inhibition assay (labeled GTP)
Conditions: 20 μM compound; read-out: % Inhibition at 20 μM KRas G12D Q61H
Listing: inhibition at 20 µM of selected compounds
MEASUREMENT_TYPE: inhibition at 20 µM

[[record]]
compound = "Nc1nc(-c2ccccn2)nc2sccc12 [drawing 2821]"
system_tested = "KRas G12D/Q61H double mutant (Homo sapiens (Human), UniProt P01116, G12D/Q61H)"
measurement_type = "inhibition at 20 µM"
result = "25 to 50%"

[[record]]
compound = "CC(C)Cc1nc(CN(C)CC(=O)Nc2ccc(Cl)c(S(=O)(=O)N3CCOCC3)c2)no1"
system_tested = "KRas G12D/Q61H double mutant (Homo sapiens (Human), UniProt P01116, G12D/Q61H)"
measurement_type = "inhibition at 20 µM"
result = "1 to 25%"

[[record]]
compound = "O=C(c1csc(-c2ncccn2)n1)N1CCC(c2ccc(O)cc2)CC1"
system_tested = "KRas G12D/Q61H double mutant (Homo sapiens (Human), UniProt P01116, G12D/Q61H)"
measurement_type = "inhibition at 20 µM"
result = "1 to 25%"

[[record]]
compound = "CC1(N)CCN(C(=O)c2csc3c(O)nc(N)nc23)CC1"
system_tested = "KRas G12D/Q61H double mutant (Homo sapiens (Human), UniProt P01116, G12D/Q61H)"
measurement_type = "inhibition at 20 µM"
result = "1 to 25%"

[[record]]
compound = "Oc1nc(-c2ccccn2)nc2c(-c3ccc(F)cc3F)csc12 [drawing 2871]"
system_tested = "KRas G12D/Q61H double mutant (Homo sapiens (Human), UniProt P01116, G12D/Q61H)"
measurement_type = "inhibition at 20 µM"
result = "51 to 75%"

[[record]]
compound = "CC(C)Cc1csc2[nH]c(-c3ccccn3)nc(=O)c12"
system_tested = "KRas G12D/Q61H double mutant (Homo sapiens (Human), UniProt P01116, G12D/Q61H)"
measurement_type = "inhibition at 20 µM"
result = "25 to 50%"

[[record]]
compound = "FC(F)(F)c1ccnc(N2CCCC2c2cccs2)n1 (stereo not shown)"
system_tested = "KRas G12D/Q61H double mutant (Homo sapiens (Human), UniProt P01116, G12D/Q61H)"
measurement_type = "inhibition at 20 µM"
result = "1 to 25%"

[[record]]
compound = "COCCCCNC(=O)c1csc2nc(-c3ccccn3)nc(N3CCN(C)CC3)c12 [drawing 2739]"
system_tested = "KRas G12D/Q61H double mutant (Homo sapiens (Human), UniProt P01116, G12D/Q61H)"
measurement_type = "inhibition at 20 µM"
result = "25 to 50%"

[[record]]
compound = "CCN(CC)S(=O)(=O)c1ccc(N2CCOCC2)c(C(=O)NCCCn2cnc3ccccc32)c1"
system_tested = "KRas G12D/Q61H double mutant (Homo sapiens (Human), UniProt P01116, G12D/Q61H)"
measurement_type = "inhibition at 20 µM"
result = "1 to 25%"

[[record]]
compound = "Cc1nc(-c2ccccn2)nc(NCCS(C)(=O)=O)c1C"
system_tested = "KRas G12D/Q61H double mutant (Homo sapiens (Human), UniProt P01116, G12D/Q61H)"
measurement_type = "inhibition at 20 µM"
result = "25 to 50%"


Recorded values, source patent US10940139B2.
